Test system: NCI/ADR-RES ovarian
Assay: NCI-60 one-dose screen, 48 h (100 = growth as untreated, 0 = no growth, -100 = all killed)
Settings: 10 µM unless noted
Compounds without any hit were thinned out: in the full panel of roughly 83,000, 20% have a hit.
assay-metric: growth (%)
Expressed in %, but write only the number.

Before answering, review these 3 worked examples.
- molecule: "CC(C)=CCc1cc2c(cc1O)C1=C(C(=O)C3=C(NCCS3(=O)=O)C1=O)C(C=C(C)C)O2 (centres undefined)"
  target-or-system: "NCI/ADR-RES ovarian"
  unit-name: "%"
  endpoint-result: 86.6
- molecule: "Cn1cc(-c2cnn3c(N)c(Br)c([C@@H]4CCCNC4)nc23)cn1"
  target-or-system: "NCI/ADR-RES ovarian"
  unit-name: "%"
  endpoint-result: 51.5
- molecule: "COc1cc2ncnc(Nc3cccc(Cl)c3F)c2cc1OC(=O)N1CCN(C)C[C@H]1C"
  target-or-system: "NCI/ADR-RES ovarian"
  unit-name: "%"
  endpoint-result: 64.3

Reported growth of COc1cc(Nc2ncc(F)c(Nc3ccc4c(n3)N(COP(=O)(O)O)C(=O)C(C)(C)O4)n2)cc(OC)c1OC : 20.5

Reported growth of CC1(O)CC(c2nc(-c3ccc4ccc(-c5ccccc5)nc4c3)c3c(N)nccn23)C1 (centres undefined) : 41
